System: UACC-62 melanoma
measurement_description: NCI tumour cell line growth inhibition, 48 h
Measured TGI accompanies every entry in the list below.

>>> measured("C/C=C1/C(=Cc2[nH]c(C=c3[nH]/c(=C/C4=NC(=O)C(CC)=C4C)c(C)c3CCC(=O)O)c(CCC(=O)O)c2C)NC(=O)C1C (stereo not drawn)")
"20.3 µM"
>>> measured("CCOC(=O)c1nc2cc(F)cc(F)c2[nH]c1=O")
"> 100 µM"

Consider now this further compound.
Enquiry: Consider the compound CC1OC(CC2C=CCc3c(O)c4c(c(O)c32)C(=O)c2ccccc2C4=O)CC(NC(=O)C(F)(F)F)C1O (stereo not drawn) and give its measured TGI.
Return: 17.4 µM

---

System: DU-145 prostate
measurement_description: NCI tumour cell line growth inhibition, 48 h; in the data active = GI50 below about 0.43 µM; inactive = the rest
Can you answer with just one of these options? active, inactive

>>> assigned_category("CCOC(=O)c1ccc(NC(=O)c2cccc(NC3=C(Cl)C(=O)N(Cc4ccccc4)C3=O)c2)cc1")
"inactive"
>>> assigned_category("C=C1C(=O)O[C@H]2[C@H]1CC/C(COC(=O)N[C@H](Cc1c[nH]c3ccccc13)C(=O)OC)=C\\CC[C@@]1(C)O[C@@H]21")
"inactive"
>>> assigned_category("COc1cccc(-c2nn(-c3ccccc3)cc2-c2ccnc(NCCCNS(=O)(=O)c3ccc(C(F)(F)F)cc3)c2)c1")
"inactive"
>>> assigned_category("CC1(C)CC[C@]2(CO)CC[C@]3(C)C(=CC[C@@H]4[C@@]5(C)CCNCC(C)(C)[C@@H]5CC[C@]43C)[C@@H]2C1")
"inactive"

Enquiry: Could you please tell me the result logged for `CCOC(=O)c1cc2c(n1Cc1ccccc1OC)-c1oncc1CCC2` in this assay?
Return: inactive

---

Test system: U251 CNS
measurement_description: NCI tumour cell line growth inhibition, 48 h
Entries and their measured TGI follow.

Enquiry: Which TGI is reported for this compound? `CCN(CC)CCCNc1cc(OC)c(OC)c2cccnc12`
Return: 21 µM

---

System: SK-OV-3 ovarian
measurement_description: NCI tumour cell line growth inhibition, 48 h
assay_readout: GI50

// solved cases for GI50 follow
>>> measured("C/C=C(\\C)C(=O)O[C@@H]1C=CC(=O)O[C@H]1CNC(=O)[C@H](C)O")
"39.4 µM"
>>> measured("CCC(C(=O)[C@@H](C)[C@@H](O)[C@H](C)[C@@H]1O[C@@H]([C@@H](CC)C(=O)ONC(=O)c2ccccc2)CC[C@@H]1C)[C@H]1O[C@]2(C=CC(=O)[C@]3(CC[C@@](C)([C@H]4CC[C@](O)(CC)[C@H](C)O4)O3)O2)[C@H](C)C[C@@H]1C (some centres undefined)")
"2.79 µM"
>>> measured("C=C1C(=O)O[C@H]2[C@H]1CC/C(COC(=O)N[C@H](Cc1c[nH]c3ccccc13)C(=O)OC)=C\\CC[C@@]1(C)O[C@@H]21")
"13.4 µM"

Enquiry: What value of GI50 has been reported for the following molecule? CC[Si](CC)(CC)OC1[C@@H](O[Si](CC)(CC)CC)[C@@H](CNC(=O)NC)O[C@H]1n1cnc2c(NC(=O)Nc3ccccc3)ncnc21 (some centres undefined)
Return: 14.7 µM

---

Tested on: UO-31 renal
measurement_description: NCI tumour cell line growth inhibition, 48 h; in the data active means GI50 below about 0.43 µM; inactive means the rest
Pick one: active, inactive

Solved entries:
>>> assigned_category("CCCCNCCCCCNc1cc(OC)cc2cccnc12")
"inactive"
>>> assigned_category("CCC(C(=O)[C@@H](C)[C@@H](O)[C@H](C)[C@@H]1O[C@@H]([C@@H](CC)C(=O)ONC(=O)c2ccccc2)CC[C@@H]1C)[C@H]1O[C@]2(C=CC(=O)[C@]3(CC[C@@](C)([C@H]4CC[C@](O)(CC)[C@H](C)O4)O3)O2)[C@H](C)C[C@@H]1C (stereo partly drawn)")
"active"

Would you kindly look at the next entry?
Enquiry: How did this test come out for `Nc1no[n+]([O-])c1-c1nnc2c(n1)-c1ccccc1C2=O` ?
Return: inactive

---

Reported GI50 values are given for each entry in this list.
System: MOLT-4 leukemia
measurement_description: NCI tumour cell line growth inhibition, 48 h

Consider the following illustrative entries.
>>> measured("CCOC(=O)c1ccc(NC(=O)c2cccc(NC3=C(Cl)C(=O)N(Cc4ccccc4)C3=O)c2)cc1")
"28.1 µM"
>>> measured("COc1ccc2[nH]c3c(O)c(-c4c(C)cc5c([nH]c6ccc(OC)cc65)c4O)c(C)cc3c2c1")
"3.23 µM"
>>> measured("Cn1cc(-c2nc(-c3cn(C)c4ncccc34)cs2)c2ccccc21")
"4.65 µM"
>>> measured("Nc1no[n+]([O-])c1-c1nnc2c(n1)-c1ccccc1C2=O")
"2.38 µM"
>>> measured("CC(=N\\O)/C(C)=N/O.CC(=N\\O)/C(C)=N/O.[Fe].[NH2-].c1c[nH]cn1")
"> 100 µM"
>>> measured("Cc1ccc(C2C3Cc4ccccc4C3=NN2c2ccc(S(=O)(=O)NC(=O)Nc3ccccc3)cc2)cc1 (centres undefined)")
"8.88 µM"
>>> measured("O=c1[nH]c2ccccc2n1C1CCN(CCOc2ccccc2)CC1")
"48 µM"
>>> measured("CC(C)(C)OC(=O)N1Cc2cc3ccccc3nc2C1CO (centres undefined)")
"> 100 µM"

Next item in the queue.
Enquiry: May I ask what GI50 has been recorded for OCC1OC(n2cnc3c(NCc4ccccc4O)ncnc32)C(O)C1O (centres undefined) ?
Return: 0.596 µM

---

Recorded TGI by entry
Tested on: NCI/ADR-RES ovarian
measurement_description: NCI tumour cell line growth inhibition, 48 h
Respond numerically; units are µM and should not be typed.

Sample answers from the record:
>>> measured("NC(=O)c1ncn2c(=O)n(CCCl)nnc12")
496
>>> measured("Cc1ccc(O)c(C(c2cc(C)ccc2O)c2cc([N+](=O)[O-])ccc2O)c1")
66.8

Enquiry: Query: TGI; subject: COc1nc2c(c(=O)[nH]1)N=C(c1ccc(Cl)cc1)CC(c1ccccc1)N2 (stereo not given)
Return: 75.4

---

Quick list: GI50 per entry.
System: SK-MEL-2 melanoma
measurement_description: NCI tumour cell line growth inhibition, 48 h

Example compounds with recorded GI50:
>>> measured("CC(=N\\O)/C(C)=N/O.CC(=N\\O)/C(C)=N/O.[Fe].[NH2-].c1c[nH]cn1")
"> 100 µM"
>>> measured("C=C1C(=O)O[C@H]2[C@H]1CC/C(COC(=O)/C=C\\C(=O)NCc1ccc(Cn3c(=O)sn(-c4ccc(Cl)cc4)c3=O)cc1)=C\\CC[C@@]1(C)O[C@@H]21")
"0.904 µM"
>>> measured("O=C(Nc1ccc(Cl)cc1)N1CCN(c2ccc3nncn3n2)CC1")
"65.4 µM"
>>> measured("Nc1no[n+]([O-])c1-c1nnc2c(n1)-c1ccccc1C2=O")
"9.13 µM"
>>> measured("CC(=O)O[C@H]1CC[C@]2(C)C3C(=O)C[C@]4(C)[C@@H](C(C)CCC(=O)O)CC[C@@]4(C)[C@@H]3CC[C@H]2C1(C)C (some centres undefined)")
"45.8 µM"
>>> measured("O=C(CCl)Nc1ccc(Cc2ccc(NC(=O)CCl)cc2)cc1")
"2.46 µM"

Enquiry: For the compound `CC(=O)c1ccc(Oc2c3ccccc3nc3occc23)cc1` , what GI50 is on record?
Return: > 100 µM

Enquiry: Consider the compound shown here: Cc1ccc(C2C3Cc4ccccc4C3=NN2c2ccc(S(=O)(=O)NC(=O)Nc3ccccc3)cc2)cc1 (centres undefined) What is its recorded GI50?
Return: 14.2 µM

Enquiry: Would you kindly share the measured GI50 for `CCOC(=O)CCSC1=CC(=O)c2nc3ccccc3c3ccnc1c23` ?
Return: 26.8 µM

---

Tested on: NCI-H226 lung
measurement_description: NCI tumour cell line growth inhibition, 48 h
assay_readout: GI50

>>> measured("Cn1cc(-c2nc(-c3cn(C)c4ncccc34)cs2)c2ccccc21")
"2.29 µM"
>>> measured("NCCCNc1nc2ccccc2c2c(=O)c3cc(F)cc(Cl)c3sc12")
"6.37 µM"
>>> measured("CC(=O)O[C@H]1CC[C@]2(C)C3C(=O)C[C@]4(C)[C@@H](C(C)CCC(=O)O)CC[C@@]4(C)[C@@H]3CC[C@H]2C1(C)C (stereo partly drawn)")
"> 50 µM"
>>> measured("C[C@@H](Oc1cc(-c2cnn(C3CCNCC3)c2)cnc1N)c1c(Cl)cc(F)cc1Cl")
"2.25 µM"
>>> measured("C=C1C(=O)O[C@H]2[C@H]1CC/C(COC(=O)/C=C\\C(=O)NCc1ccc(Cn3c(=O)sn(-c4ccc(Cl)cc4)c3=O)cc1)=C\\CC[C@@]1(C)O[C@@H]21")
"1.24 µM"

Enquiry: May I ask what GI50 has been recorded for `Cc1nn(-c2ccccc2)c2nc(C)n(-c3ccc(Br)cc3)c(=O)c12` ?
Return: 1.01 µM

Enquiry: # query: GI50 of entry `CCOC(=O)c1ccc(NC(=O)c2cccc(NC3=C(Cl)C(=O)N(Cc4ccccc4)C3=O)c2)cc1`
Return: > 100 µM

Enquiry: Fill in: GI50 of O=C(CC1Sc2ccccc2NC1=O)NNc1ccc(F)cc1 (stereo not drawn) is ___
Return: 41.3 µM

Enquiry: Form field: reported GI50 of `Cc1ccc(/C(=C/C=C(C#N)C#N)Sc2nc3ccccc3s2)cc1`
Return: 3.5 µM

Enquiry: # query: GI50 of entry `C/C=C(\C)C(=O)O[C@@H]1C=CC(=O)O[C@H]1CNC(=O)[C@H](C)O`
Return: 28.9 µM

Enquiry: May I ask what GI50 has been recorded for `CCN(CC)CCCNc1cc(OC)c(OC)c2cccnc12` ?
Return: 15.2 µM

Enquiry: Can you share its GI50? I mean this compound: `CCCCC[C@H]1C/C=C2/C(=O)C(Cl)=C[C@@H]2C/C=C\CCCC(=O)O1`
Return: 0.544 µM

Enquiry: Need GI50, item C=CCN1C(=O)[C@]2(SC1=S)[C@H](c1cccc(Cl)c1)CN(C)[C@]21C(=O)NC2C=CC(Cl)=C[C@H]21 (stereo partly drawn)
Return: 1.59 µM

Enquiry: Entry under review: `O=C(c1ccc(Nc2nccc(NCCCCNc3ccnc4cc(Cl)ccc34)n2)cc1)N1CCCCC1` . Reported GI50?
Return: 3.59 µM

Enquiry: Any idea what GI50 was measured for CC(C)(C)OC(=O)N1Cc2cc3ccccc3nc2C1CO (stereo not drawn) ?
Return: > 100 µM

Enquiry: So what's the measured GI50 for this one? OCC1OC(n2cnc3c(NCc4ccccc4O)ncnc32)C(O)C1O (stereo not drawn)
Return: 8.65 µM

Enquiry: Which GI50 is listed for `CN(C)C/C=C/C(=O)Nc1cc2c(Nc3cccc(Cl)c3F)ncnc2cc1OCCOC(F)F` ?
Return: 1.68 µM

Enquiry: Could you share which GI50 value was measured for `C=C1C(=O)O[C@H]2[C@H]1CC/C(COC(=O)N[C@H](Cc1c[nH]c3ccccc13)C(=O)OC)=C\CC[C@@]1(C)O[C@@H]21` ?
Return: 2.2 µM
